species: Rattus norvegicus; assay: Open TG-GATES - Regimen: Daily Repeat; assay type: toxicity, organism-based, Sprague-Dawley; design: regimen Daily Repeat, gender Male, age 6 weeks; conditions: in vivo, po, 0 mg/kg, […], tissue Kidney, route gavage, dose level Control, time 14 day
Documented KIDNEY_TOTAL across a set of compounds
# number only, unit g dropped from output

compound	KIDNEY_TOTAL (g)
CN(C)CCC(c1ccc(Cl)cc1)c1ccccn1 (stereo not drawn)	2.2
Brc1ccccc1	2.3
O=C(OC[C@H]1O[C@@H](OC(=O)c2cc(O)c(O)c(OC(=O)c3cc(O)c(O)c(O)c3)c2)[C@H](OC(=O)c2cc(O)c(O)c(OC(=O)c3cc(O)c(O)c(O)c3)c2)[C@@H](OC(=O)c2cc(O)c(O)c(OC(=O)c3cc(O)c(O)c(O)c3)c2)[C@@H]1OC(=O)c1cc(O)c(O)c(OC(=O)c2cc(O)c(O)c(O)c2)c1)c1cc(O)c(O)c(OC(=O)c2cc(O)c(O)c(O)c2)c1	2.4
CC(C)NNC(=O)c1ccncc1	2.1

What value of KIDNEY_TOTAL has been recorded for this entry: CCOc1ccc(NC(C)=O)cc1
2.7

Item: COC(=O)C1=C(C)NC(C)=C(C(=O)OC)C1c1ccccc1[N+](=O)[O-]
2.5

Item: CNC(=C[N+](=O)[O-])NCCSCc1ccc(CN(C)C)o1
2.4

Item: Cc1nnc2n1-c1ccc(Cl)cc1C(c1ccccc1Cl)=NC2
2.4

----------
organism: Rattus norvegicus; test: Open TG-GATES - Regimen: Daily Repeat; type: toxicity, organism-based, Sprague-Dawley; design: regimen Daily Repeat, gender Male, age 6 weeks; conditions: in vivo, po, 100 mg/kg, […], tissue Plasma, route gavage, dose level Low, time 14 day
endpoint.label: log10 DBIL (log10 of the value in mg/dL)
The figures below represent log10 of DBIL, where DBIL is stated in mg/dL.

chemical.structure	log10 DBIL
CCOc1ccc(NC(C)=O)cc1	-1.66
Cc1nnc2n1-c1ccc(Cl)cc1C(c1ccccc1Cl)=NC2	-2.10
COC(=O)C1=C(C)NC(C)=C(C(=O)OC)C1c1ccccc1[N+](=O)[O-]	-1.92
CNC(=C[N+](=O)[O-])NCCSCc1ccc(CN(C)C)o1	-1.00
O=C(OC[C@H]1O[C@@H](OC(=O)c2cc(O)c(O)c(OC(=O)c3cc(O)c(O)c(O)c3)c2)[C@H](OC(=O)c2cc(O)c(O)c(OC(=O)c3cc(O)c(O)c(O)c3)c2)[C@@H](OC(=O)c2cc(O)c(O)c(OC(=O)c3cc(O)c(O)c(O)c3)c2)[C@@H]1OC(=O)c1cc(O)c(O)c(OC(=O)c2cc(O)c(O)c(O)c2)c1)c1cc(O)c(O)c(OC(=O)c2cc(O)c(O)c(O)c2)c1	-2.00

What value of log10 DBIL has been recorded for this entry: CN/C(=N/CCSCc1nc[nH]c1C)NC#N
-1.00

----------
organism: Rattus norvegicus; assay: Open TG-GATES - Regimen: Single; type: toxicity, organism-based, Sprague-Dawley; set-up: regimen Single, gender Male, age 6 weeks; conditions: in vivo, po, 300 mg/kg, 6 h, tissue Blood, route gavage, dose level Middle
endpoint.label: Ht (%)
# number only, unit % dropped from output

# count of solved cases: 3
compound	Ht / %
CN/C(=N/CCSCc1nc[nH]c1C)NC#N [CIMETIDINE]	37.3
O=C(OC[C@H]1O[C@@H](OC(=O)c2cc(O)c(O)c(OC(=O)c3cc(O)c(O)c(O)c3)c2)[C@H](OC(=O)c2cc(O)c(O)c(OC(=O)c3cc(O)c(O)c(O)c3)c2)[C@@H](OC(=O)c2cc(O)c(O)c(OC(=O)c3cc(O)c(O)c(O)c3)c2)[C@@H]1OC(=O)c1cc(O)c(O)c(OC(=O)c2cc(O)c(O)c(O)c2)c1)c1cc(O)c(O)c(OC(=O)c2cc(O)c(O)c(O)c2)c1 [TANNIC ACID]	39.1
CNC(=C[N+](=O)[O-])NCCSCc1ccc(CN(C)C)o1 [RANITIDINE]	37.8

What value of Ht has been recorded for this entry: COC(=O)C1=C(C)NC(C)=C(C(=O)OC)C1c1ccccc1[N+](=O)[O-] [NIFEDIPINE]
40

Item: Cc1nnc2n1-c1ccc(Cl)cc1C(c1ccccc1Cl)=NC2 [TRIAZOLAM]
42.4

----------
organism: Rattus norvegicus; assay: Open TG-GATES - Regimen: Daily Repeat; type: toxicity, organism-based, Sprague-Dawley; design: regimen Daily Repeat, gender Male, age 6 weeks; details: in vivo, po, 0 mg/kg, […], tissue Blood, route gavage, dose level Control, time 7 day
Documented Hb across a set of compounds
# number only, unit g/dL dropped from output

# count of solved cases: 5
compound	unit.symbol	Hb
Cc1nnc2n1-c1ccc(Cl)cc1C(c1ccccc1Cl)=NC2 [TRIAZOLAM]	g/dL	13.7
CCOc1ccc(NC(C)=O)cc1 [PHENACETIN]	g/dL	13.9
CN1C(=O)CCS(=O)(=O)C1c1ccc(Cl)cc1 (stereo unspecified) [CHLORMEZANONE]	g/dL	13.9
CN/C(=N/CCSCc1nc[nH]c1C)NC#N [CIMETIDINE]	g/dL	14
NC1=NC(=O)C(c2ccccc2)O1 (stereo unspecified) [PEMOLINE]	g/dL	13.8

What value of Hb has been recorded for this entry: CC(C)NNC(=O)c1ccncc1 [IPRONIAZID]
13.5

----------
species: Rattus norvegicus; assay: Open TG-GATES - Regimen: Daily Repeat; format: toxicity, organism-based, Sprague-Dawley; parameters: regimen Daily Repeat, gender Male, age 6 weeks; conditions: in vivo, po, 300 mg/kg, […], tissue Plasma, route gavage, dose level Middle, time 28 day
endpoint.label: ALP (IU/L)
# number only, unit IU/L dropped from output

# count of solved cases: 5
chemical.structure	unit.symbol	ALP
O=C(OC[C@H]1O[C@@H](OC(=O)c2cc(O)c(O)c(OC(=O)c3cc(O)c(O)c(O)c3)c2)[C@H](OC(=O)c2cc(O)c(O)c(OC(=O)c3cc(O)c(O)c(O)c3)c2)[C@@H](OC(=O)c2cc(O)c(O)c(OC(=O)c3cc(O)c(O)c(O)c3)c2)[C@@H]1OC(=O)c1cc(O)c(O)c(OC(=O)c2cc(O)c(O)c(O)c2)c1)c1cc(O)c(O)c(OC(=O)c2cc(O)c(O)c(O)c2)c1	IU/L	534
COC(=O)C1=C(C)NC(C)=C(C(=O)OC)C1c1ccccc1[N+](=O)[O-]	IU/L	1129.6
CCOc1ccc(NC(C)=O)cc1	IU/L	1081
Cc1nnc2n1-c1ccc(Cl)cc1C(c1ccccc1Cl)=NC2	IU/L	1211.8
CN/C(=N/CCSCc1nc[nH]c1C)NC#N	IU/L	725.6

Okay, now this molecule:
What value of ALP has been recorded for this entry: CNC(=C[N+](=O)[O-])NCCSCc1ccc(CN(C)C)o1
642.2

----------
species on record: Rattus norvegicus; test: Open TG-GATES - Regimen: Daily Repeat; type: toxicity, organism-based, Sprague-Dawley; parameters: regimen Daily Repeat, gender Male, age 6 weeks; settings: in vivo, po, 0 mg/kg, […], tissue Blood, route gavage, dose level Control, time 14 day
Documented Plat across a set of compounds
# number only, unit x10_4/uL dropped from output

compound	measured
CN(C)CCC(c1ccc(Cl)cc1)c1ccccn1 (stereo not given)	111
CN/C(=N/CCSCc1nc[nH]c1C)NC#N	129.1
COC(=O)C1=C(C)NC(C)=C(C(=O)OC)C1c1ccccc1[N+](=O)[O-]	117.8
CN1C(=O)CCS(=O)(=O)C1c1ccc(Cl)cc1 (stereo not given)	123

Okay, now this compound:
What value of Plat has been recorded for this entry: CCCc1cc(=O)[nH]c(=S)[nH]1
105.2

----------
species: Rattus norvegicus; experiment: Open TG-GATES - Regimen: Daily Repeat; assay type: toxicity, organism-based, Sprague-Dawley; design: regimen Daily Repeat, gender Male, age 6 weeks; conditions: in vivo, po, 1000 mg/kg, 72 h, tissue Plasma, route gavage, dose level High, time 3 day
Documented Cl across a set of compounds
# number only, unit meq/L dropped from output

chemical.structure	unit.symbol	Cl
O=C(OC[C@H]1O[C@@H](OC(=O)c2cc(O)c(O)c(OC(=O)c3cc(O)c(O)c(O)c3)c2)[C@H](OC(=O)c2cc(O)c(O)c(OC(=O)c3cc(O)c(O)c(O)c3)c2)[C@@H](OC(=O)c2cc(O)c(O)c(OC(=O)c3cc(O)c(O)c(O)c3)c2)[C@@H]1OC(=O)c1cc(O)c(O)c(OC(=O)c2cc(O)c(O)c(O)c2)c1)c1cc(O)c(O)c(OC(=O)c2cc(O)c(O)c(O)c2)c1	meq/L	104.2

Okay, now this compound:
What value of Cl has been recorded for this entry: Cc1nnc2n1-c1ccc(Cl)cc1C(c1ccccc1Cl)=NC2
102.8
